tested system: Cathepsin B (Homo sapiens)
measurement notes: Inhibition of recombinant human liver CatB at 10 uM using Z-FR-AMC as substrate by fluorescence assay relative to control
observed property: inhibition (%)

N#CCNC(=O)CN(Cc1ccccc1)C(=O)c1ccccc1
85
COc1ccc(-c2ccc(C(=O)N(CC(=O)NC3(C#N)CC3)Cc3ccccc3)cc2)cc1
78
CC(C)(C#N)NC(=O)CN(Cc1ccccc1)C(=O)c1ccccc1
90
N#CCNC(=O)CN(Cc1ccccc1)C(=O)c1cccc(I)c1
87

###

tested system: Cathepsin S (Homo sapiens)
Sequence (P25774 whole entry): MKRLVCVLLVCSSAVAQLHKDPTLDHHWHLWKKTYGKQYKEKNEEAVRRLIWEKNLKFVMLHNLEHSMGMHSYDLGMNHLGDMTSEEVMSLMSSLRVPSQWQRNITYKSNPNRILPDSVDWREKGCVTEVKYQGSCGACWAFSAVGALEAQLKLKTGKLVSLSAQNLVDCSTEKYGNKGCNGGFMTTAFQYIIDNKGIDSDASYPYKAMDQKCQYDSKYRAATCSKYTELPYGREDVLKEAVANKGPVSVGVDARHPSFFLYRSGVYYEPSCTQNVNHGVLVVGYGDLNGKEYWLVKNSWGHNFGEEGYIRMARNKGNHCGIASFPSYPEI
measurement notes: Inhibition of recombinant human liver CatS using Z-FR-AMC as substrate by fluorescence assay
observed property: Ki (µM)

Here are 6 compounds together with their reported answers.
N#CC1(NC(=O)CN(Cc2ccccc2)C(=O)c2ccccc2)CC1
5.01
COc1ccc(-c2ccc(C(=O)N(CC(=O)NC3(C#N)CC3)Cc3ccccc3)cc2)cc1
3.98
CC(C)(C#N)NC(=O)CN(Cc1ccccc1)C(=O)c1ccccc1
7.94
N#CCNC(=O)CN(Cc1ccccc1)C(=O)c1ccc(-c2ccccc2)cc1
6.31
N#CCNC(=O)CN(Cc1ccccc1)C(=O)c1cccc(I)c1
10
N#CCNC(=O)CN(Cc1ccccc1)S(=O)(=O)c1cccc(Cl)c1
2

[a] N#CCNC(=O)CN(Cc1ccccc1)C(=O)c1ccccc1
[b] COc1ccc(-c2ccc(C(=O)N(CC(=O)NCC#N)Cc3ccccc3)cc2)cc1
Which of the two gives a bigger number for Ki: a or b ? Kindly give the label for the entry you pick.
a
(a: 5.01 µM, b: 0.794 µM)
